Tested on: SARS-CoV-2
experimental_details: Antiviral assay (viral RNA in culture supernatant by RT-qPCR)
applied_conditions: read-out: CC50 (Antiviral Data); MOI of 0.05, 72 h, 96-well plate, RT-qPCR of viral RNA
Each record here notes measured CC50.

// solved cases for CC50 follow
| compound | CC50 |
| --- | --- |
| CC(C)(C)[C@H](NC(=O)C(F)(F)F)C(=O)N1C[C@H]2[C@@H]([C@H]1C(=O)N[C@H](C#N)C[C@@H]1CCNC1=O)C2(C)C [drawing 61] | 10.1 to 100 µM |
| CC(C)(C)[C@H](NC(=O)c1ccccc1)C(=O)N1C[C@H]2[C@@H]([C@H]1C(=O)N[C@H](C#N)C[C@@H]1CCNC1=O)C2(C)C [drawing 101] | 10.1 to 100 µM |
| CC(C)(C)[C@H](NC(=O)C(F)(F)F)C(=O)N1C[C@H]2[C@@H]([C@H]1C(=O)N[C@H](C#N)C[C@@H]1CCCNC1=O)C2(C)C [drawing 62] | 10.1 to 100 µM |
| CC(C)(C)[C@H](NC(=O)C(F)(F)F)C(=O)N1C[C@H]2[C@@H]([C@H]1C(=O)N[C@H](C#N)C[C@@H]1CCNC1=O)C2(C)C [drawing 94] | > 100 µM |

Q: I'd like to know its CC50. The compound in question is CC(C)(C)[C@H](NC(=O)C(F)(F)F)C(=O)N1C[C@H]2[C@@H]([C@H]1C(=O)N[C@H](C#N)C[C@@H]1CCCNC1=O)C2(C)C [drawing 95]
Ans: 1 to 10 µM

---

Below, each of the compounds is paired with its reported CC50 value.
Tested on: SARS-CoV-2
experimental_details: Antiviral assay (viral RNA in culture supernatant by RT-qPCR)
applied_conditions: Severe acute respiratory syndrome coronavirus 2, 72 h, read-out: CC50 (Antiviral Data), MOI of 0.05, 72 h, 96-well plate, RT-qPCR of viral RNA

| compound | CC50 |
| --- | --- |
| CC(C)O[C@@H]1C[C@@H](C(=O)NC(C#N)C[C@H]2CCNC2=O)N(C(=O)[C@@H](NC(=O)C(O)c2ccco2)C(C)(C)C)C1 (stereo partly shown) | > 100 µM |
| CC(C)(C)NC(=O)N[C@H](C(=O)N1C[C@H]2[C@@H]([C@H]1C(=O)NC(C#N)C[C@@H]1CCNC1=O)C2(C)C)C(C)(C)C (stereo partly shown) | > 100 µM |
| CCCN(CCC)[C@@H]1C[C@@H](C(=O)NC(C#N)C[C@@H]2CCNC2=O)N(C(=O)[C@@H](NC(=O)OCc2ccccn2)C(C)(C)C)C1 (stereo partly shown) | > 100 µM |
| CC(C)O[C@@H]1C[C@@H](C(=O)NC(C#N)C[C@H]2CCNC2=O)N(C(=O)[C@@H](NC(=O)C(F)(F)F)C(C)(C)C)C1 (stereo partly shown) | 10.1 to 100 µM |
| CC(C)O[C@@H]1C[C@@H](C(=O)NC(C#N)C[C@H]2CCNC2=O)N(C(=O)[C@@H](NC(=O)OCc2ccncc2)C(C)(C)C)C1 (stereo partly shown) | > 100 µM |

Q: Need CC50 of CC(C)(C)[C@H](NC(=O)C(Cl)(Cl)Cl)C(=O)N1C[C@H]2[C@@H]([C@H]1C(=O)N[C@H](C#N)C[C@@H]1CCCNC1=O)C2(C)C , thanks.
Ans: > 100 µM

Q: Tell me the measured CC50 of CCCO[C@@H]1C[C@@H](C(=O)NC(C#N)C[C@@H]2CCNC2=O)N(C(=O)[C@@H](NC(=O)OCc2ccccc2)C(C)(C)C)C1 (stereo partly shown) , please.
Ans: 1 to 10 µM
